Reference for the values: ChEMBL document CHEMBL5058577

tested on: U2OS; assay: Multiplex assay against U2OS; assay type: toxicity, cell-based; details: human, 24 h, 10 µM, compound concentration 10 uM, replicate 2
measure: Population Fragmented Nuclei (%)
Entry format: amount then unit.

Completed entries (count: 2):
Query block: # get_value(readout='Population Fragmented Nuclei (%)', item= "C=CCN1C[C@H](C(=O)N(CCCN(C)C)C(=O)NCC)C[C@@H]2c3cccc4[nH]cc(c34)C[C@H]21" )
Result block: 14%

Query block: Record request: Population Fragmented Nuclei (%) value, item "C[C@H](NC(=O)CNC(=O)c1cccc(Cl)c1)c1ccccc1"
Result block: 12%

For each entry beneath this line, provide reported Population Fragmented Nuclei (%).
1. COc1cc2nc(N3CCN(C(=O)c4ccco4)CC3)nc(N)c2cc1OC.Cl [PRAZOSIN HYDROCHLORIDE]
2. COC(c1ccccc1)(c1ccccc1)[C@H](Oc1nc(C)cc(C)n1)C(=O)O

Result block:
1. 13%
2. 13%

Provide Population Fragmented Nuclei (%) for all items below, preserving their order.
1. COc1ccc2[nH]c(I)c(CCNC(C)=O)c2c1
2. CCC(=O)OCC(=O)[C@@]1(OC(=O)CC)[C@@H](C)C[C@H]2[C@@H]3CCC4=CC(=O)C=C[C@]4(C)[C@@]3(Cl)[C@@H](O)C[C@@]21C [BECLOMETHASONE DIPROPIONATE]
3. CN(C)C/C=C/C(=O)Nc1ccc(C(=O)N2CCCC(Nc3ncc(Cl)c(-c4c[nH]c5ccccc45)n3)C2)cc1 (configuration not stated)

Result block:
1: 34%; 2: 12%; 3: 31%

Report Population Fragmented Nuclei (%) for each item below.
1. COc1cc(C(=O)N2CC[C@@H](O)[C@@H](N)C2)cc2nc(-c3cc4ccccc4n3CC3CC3)n(C)c12.Cl
2. COc1ccc2c(c1OCc1ccccc1)C[C@@H](C(=O)O)N(C(=O)C(c1ccccc1)c1ccccc1)C2
3. Cn1cc(C(=O)OCC2CCN(CCNS(C)(=O)=O)CC2)c2ccccc21
4. CSc1nc(NC2CCCC2)c([N+](=O)[O-])c(NC2CCCC2)n1
5. O=c1nc2[nH]c3ccccc3nc-2c(=O)[nH]1

Result block:
1. 26%
2. 22%
3. 16%
4. 18%
5. 16%

Give one value of Population Fragmented Nuclei (%) per listed compound.
1. COCCn1c(C)c(C)s/c1=N\C(=O)C1C(C)(C)C1(C)C
2. Cc1ccc(OCC(O)C(C)NC(C)C)c2c1CCC2.Cl (configuration not stated)
3. Cl.Cl.OCCOCCN1CCN(C(c2ccccc2)c2ccc(Cl)cc2)CC1 (configuration not stated) [HYDROXYZINE HYDROCHLORIDE]

Result block:
21%
14%
31%

Batch lookup, Population Fragmented Nuclei (%) per entry.
1. O=C(O)CCC/C=C\CC1C(O)CC(O)C1/C=C/C(O)COc1cccc(Cl)c1 (configuration not stated)
2. CCc1nn2c(C)cc(C)nc2c1Cc1ccc(-c2nnc(C3CCNCC3)o2)cc1

Result block:
11%
15%
